The measurements presented in this section are drawn from PubChem BioAssay AID687001.

Target: Protein S100-A4 (Homo sapiens)
Assay: human S100A4 peptide interaction inhibition curves – biochemical, fluorescence polarization, cherry-picked hits, dose response (AID 687001)
Conditions: FP, S100A4/TAMRA-myosin IIA peptide binding; series mostly up to 11 µM
Potency and affinity values are given separately. Active and inactive are the calls of the source.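 The calls were made as follows: active = signal-lowering compounds whose fitted half-maximal concentration is at or below twice the top tested dose in every run; inconclusive = runs disagree, flat 30 to 70% inhibition, or poor curve fit; inactive = the rest.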
propertyMeasured: activity change, negative = inhibition

For orientation, consider the following solved cases.
CCCCn1cnc2c(SCc3ccc(Cl)cc3)nc(N)nc21: inactive
CCCc1cn(CC[C@@H]2CC[C@H](NC(=O)C3CCCC3)[C@H](CO)O2)nn1: inactive
C[C@@H]1CN([C@H](C)CO)S(=O)(=O)c2ccc(C#CCN(C)C)cc2O[C@@H]1CN(C)CC1CC1: inactive
O=S(=O)(CCS(=O)(=O)c1ccccc1)c1ccccc1: inactive
CN1C(=O)c2cc(NC(=O)C3CCC3)ccc2OC[C@@H]2O[C@@H](CC(=O)NCc3ccccc3F)CC[C@@H]21: inactive
COC(=O)c1cccc(NC(=O)c2ccc3c(c2)C(=O)N(Cc2cccnc2)C3=O)c1: inactive
O=C(C[C@@H]1C[C@H]2c3cc(NS(=O)(=O)c4ccccc4)ccc3O[C@H]2[C@@H](CO)O1)N1CCOCC1: inactive
COCC(=O)N(C)C[C@H]1Oc2cc(C#CCN(C)C)ccc2S(=O)(=O)N([C@@H](C)CO)C[C@H]1C: inactive

Lab note: each compound below needs its activity change, negative = inhibition filled in.
1. CO[C@@H]1CC[C@H]2CCOc3c(C#N)cccc3C(=O)N(C)C[C@H](C)C(=O)N(C)C[C@H]1O2
2. CSc1cccc(NC(=O)C2CCN(S(=O)(=O)c3ccc4c(c3)NC(=O)CO4)CC2)c1
3. COc1ccc(NC(=O)N(C)C[C@@H]2Oc3ncc(C#CC(C)(C)O)cc3C(=O)N([C@H](C)CO)C[C@@H]2C)cc1
4. C[C@@H]1CN([C@@H](C)CO)C(=O)c2cccc(NC(=O)Nc3cccc4ccccc34)c2O[C@H]1CN(C)C(=O)Nc1ccccc1
5. COc1ccc(C#Cc2ccc([C@H]3[C@H]4CN(S(=O)(=O)c5ccccc5)CCCCN4[C@H]3CO)cc2)cc1
6. CSc1ccccc1OCc1cc(C(=O)NCCN2CCCc3ccccc32)no1

**A:**
1. inactive
2. inactive
3. inactive
4. inactive
5. inactive
6. inactive

Lab note: each compound below needs its activity change, negative = inhibition filled in.
1. CCN(CC)C(=O)Oc1ccc2c(c1)O/C(=C\c1ccco1)C2=O
2. CC(=O)Nc1ccc(C=NNc2nnc(NN=Cc3ccc(NC(C)=O)cc3)c3ccccc23)cc1
3. Cc1oc(-c2ccccc2Cl)nc1CSCC(=O)O

**A:**
inactive
inactive
inactive
